From: PubChem BioAssay (NCI)

test system: M14 melanoma; test: NCI-60 one-dose screen, 48 h; settings: 10 µM unless noted
This is part of a sample that, as a whole, favours compounds with a hit. Of some 83,000 tested, about 20% had one in any assay. The source made the active and inactive calls. Rule for the calls: active = growth percent below 10; inactive = the rest.
Field 'call' accepts t = active, f = inactive

Please review the entries below; each comes with its answer.
{"smiles notation": "COc1cccc(-c2cc(-c3cccc(Cl)c3)c(C#N)c(=O)[nH]2)c1", "class assignment": "f"}
{"smiles notation": "CN(CCC(=O)c1ccccc1)CCC(=O)c1ccccc1", "class assignment": "f"}

Hi, do you know how `CN(C)c1ccc(-c2nc(-c3ccccc3)c(-c3ccccc3)[nH]2)cc1` came out in this test? f

Each compound tested received a call. Report the one for `COc1cc(-c2nc3cc(Cl)c(Cl)cc3[nH]2)ccc1OCC(=O)N=Nc1c(O)[nH]c2ccc(Cl)cc12` . t

Record request — test call for `COc1cccc(CCNc2ncnc3c2ncn3Cc2nnc3c4ccccc4c(Cl)nn23)c1` f

Hi, do you know how `O=C1/C(=C/c2ccccn2)NC(=S)N1c1ccccc1Cl` came out in this test? f

Test call, this compound: `Nc1c(C(=O)Nc2cccc(Cl)c2)sc2nc3c(cc12)CCCC3` f

Hi, sorry to bother you, what did the test record for `C#CCNC(=O)[C@]1(C)CCC[C@@]2(C)[C@H]1CC=C1C=C(C(C)C)CC[C@@H]12` ? f

For `Cc1ccc(S(=O)(=O)OCCCOS(=O)(=O)c2ccc(C)cc2)cc1` , which call appears in the assay record? f

Could you please tell me the result logged for `O=C1Nc2ccccc2/C1=C/c1cccn1C(=O)c1ccc(Cl)s1` in this assay? f

Dear colleague, could you share the recorded outcome for `COc1ccc2c(c1)c(-c1nc(-c3c[nH]c4ncccc34)cs1)cn2CCO` when you have a moment? f

Please let me know the test result on file for `COc1ccc(C(=O)Cn2c(C(=O)c3ccc(Cl)cc3)nc3ccccc32)cc1` . f

// return assay outcome for `CCN(CC)CCCN1C(=O)c2c(c(C)c3c(oc4ccc(O)cc43)c2C)C1=O` f
